- study.system: Protein deacetylase HDAC6 (Homo sapiens) (UniProt Q9UBN7);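 also: enzyme assay on human HDAC6 with a fluorescein-tagged acetylated histone H4 peptide substrate, fluorescence read after 60 min, inhibition expressed versus untreated control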
- Sequence (Q9UBN7 whole entry): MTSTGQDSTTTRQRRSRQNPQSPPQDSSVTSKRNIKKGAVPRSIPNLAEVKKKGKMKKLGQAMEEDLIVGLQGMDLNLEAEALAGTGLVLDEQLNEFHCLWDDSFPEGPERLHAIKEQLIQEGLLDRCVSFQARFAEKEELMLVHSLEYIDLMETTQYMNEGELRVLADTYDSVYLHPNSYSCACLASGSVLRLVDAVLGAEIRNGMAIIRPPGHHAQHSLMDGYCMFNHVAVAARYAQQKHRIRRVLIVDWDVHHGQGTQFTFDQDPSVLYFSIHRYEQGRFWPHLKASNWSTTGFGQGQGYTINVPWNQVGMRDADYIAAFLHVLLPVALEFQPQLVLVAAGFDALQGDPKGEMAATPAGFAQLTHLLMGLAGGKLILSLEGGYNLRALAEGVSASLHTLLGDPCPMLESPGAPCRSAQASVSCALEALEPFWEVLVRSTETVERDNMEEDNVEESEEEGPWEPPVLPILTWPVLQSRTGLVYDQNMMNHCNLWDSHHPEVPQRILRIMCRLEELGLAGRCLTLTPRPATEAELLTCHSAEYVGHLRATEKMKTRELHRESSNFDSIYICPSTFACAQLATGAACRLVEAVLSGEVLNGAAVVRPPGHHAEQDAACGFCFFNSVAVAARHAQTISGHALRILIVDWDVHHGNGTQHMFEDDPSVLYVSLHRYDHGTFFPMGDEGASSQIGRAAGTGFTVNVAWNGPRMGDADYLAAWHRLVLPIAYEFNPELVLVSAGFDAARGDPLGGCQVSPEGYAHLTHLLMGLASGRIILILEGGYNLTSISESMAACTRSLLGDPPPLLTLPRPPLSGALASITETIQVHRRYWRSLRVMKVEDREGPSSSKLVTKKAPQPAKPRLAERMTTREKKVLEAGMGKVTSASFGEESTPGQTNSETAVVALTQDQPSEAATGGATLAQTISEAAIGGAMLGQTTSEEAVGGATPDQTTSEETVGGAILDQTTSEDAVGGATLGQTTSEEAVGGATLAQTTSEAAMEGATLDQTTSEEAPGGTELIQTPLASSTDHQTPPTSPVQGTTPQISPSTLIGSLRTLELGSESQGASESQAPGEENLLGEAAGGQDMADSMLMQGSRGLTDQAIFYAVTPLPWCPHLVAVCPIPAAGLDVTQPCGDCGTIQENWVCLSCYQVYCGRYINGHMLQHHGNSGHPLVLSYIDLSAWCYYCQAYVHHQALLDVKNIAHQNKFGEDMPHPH
- setup.conditions: at 30 µM
- Description: Inhibition of human KDAC6 at 30 uM using FITC-labeled histone H4 acetylated peptide as substrate after 60 mins by fluorescence assay relative to control
readout.kind: inhibition (%)

[
  {
    "compound.smiles": "O=C(CCCCN1C(=O)[C@H](Cc2cncn2C(c2ccccc2)(c2ccccc2)c2ccccc2)N=C(c2ccccc2)c2ccccc21)NO",
    "data.value": 89.9
  },
  {
    "compound.smiles": "C[C@H](OCc1ccccc1)[C@@H]1N=C(c2ccccc2)c2ccccc2NC1=O",
    "data.value": 3.08
  },
  {
    "compound.smiles": "CC(C)(C)OC[C@@H]1N=C(c2ccccc2)c2ccccc2NC1=O",
    "data.value": 2.44
  },
  {
    "compound.smiles": "CC(C)[C@@H]1N=C(c2ccccc2)c2ccccc2N(CCCCC(=O)O)C1=O",
    "data.value": 0
  },
  {
    "compound.smiles": "CC(C)(C)OC(=O)CC[C@@H]1N=C(c2ccccc2)c2ccccc2N(CCCCC(=O)O)C1=O",
    "data.value": 0
  },
  {
    "compound.smiles": "CC[C@H](C)[C@@H]1N=C(c2ccccc2)c2ccccc2NC1=O",
    "data.value": 1.82
  },
  {
    "compound.smiles": "CC[C@H](C)[C@@H]1N=C(c2ccccc2)c2ccccc2N(CCCCC(=O)OC)C1=O",
    "data.value": 0
  },
  {
    "compound.smiles": "O=C(CCCCN1C(=O)[C@@H](CS)N=C(c2ccccc2)c2ccccc21)NO",
    "data.value": 96.9
  },
  {
    "compound.smiles": "COC(=O)CCCCN1C(=O)[C@H](CCSC)N=C(c2ccccc2)c2ccccc21",
    "data.value": 0
  },
  {
    "compound.smiles": "CSCC[C@@H]1N=C(c2ccccc2)c2ccccc2N(CCCCC(=O)O)C1=O",
    "data.value": 0
  },
  {
    "compound.smiles": "COC(=O)CCCCN1C(=O)[C@H](Cc2ccccc2)N=C(c2ccccc2)c2ccccc21",
    "data.value": 6.49
  },
  {
    "compound.smiles": "NCCCC[C@@H]1N=C(c2ccccc2)c2ccccc2N(CCCCC(=O)NO)C1=O",
    "data.value": 73.4
  },
  {
    "compound.smiles": "O=C(C[C@@H]1N=C(c2ccccc2)c2ccccc2NC1=O)NC(c1ccccc1)(c1ccccc1)c1ccccc1",
    "data.value": 0
  },
  {
    "compound.smiles": "COC(=O)CCCCN1C(=O)[C@H](Cc2cncn2C(c2ccccc2)(c2ccccc2)c2ccccc2)N=C(c2ccccc2)c2ccccc21",
    "data.value": 5.33
  },
  {
    "compound.smiles": "C[C@@H]1N=C(c2ccccc2)c2ccccc2N(CCCCC(=O)O)C1=O",
    "data.value": 0.27
  },
  {
    "compound.smiles": "COC(=O)CCCCN1C(=O)[C@@H](CSC(C)(C)C)N=C(c2ccccc2)c2ccccc21",
    "data.value": 0
  },
  {
    "compound.smiles": "CC(C)(C)SC[C@H]1N=C(c2ccccc2)c2ccccc2NC1=O",
    "data.value": 2.05
  },
  {
    "compound.smiles": "CC(C)(C)OC(=O)n1c(C[C@@H]2N=C(c3ccccc3)c3ccccc3N(CCCCC(=O)O)C2=O)cc2ccccc21",
    "data.value": 7.4
  },
  {
    "compound.smiles": "O=C1Nc2ccccc2C(c2ccccc2)=N[C@H]1Cc1ccccc1",
    "data.value": 3.33
  },
  {
    "compound.smiles": "CC(C)(C)OC(=O)CC[C@@H]1N=C(c2ccccc2)c2ccccc2NC1=O",
    "data.value": 0.01
  },
  {
    "compound.smiles": "O=C(O)CCCCN1C(=O)[C@H](CC(=O)O)N=C(c2ccccc2)c2ccccc21",
    "data.value": 0
  },
  {
    "compound.smiles": "COC(=O)CCCCN1C(=O)[C@H](CCC(=O)OC(C)(C)C)N=C(c2ccccc2)c2ccccc21",
    "data.value": 0
  },
  {
    "compound.smiles": "CC(C)C[C@@H]1N=C(c2ccccc2)c2ccccc2N(CCCCC(=O)O)C1=O",
    "data.value": 0
  },
  {
    "compound.smiles": "CC[C@H](C)[C@@H]1N=C(c2ccccc2)c2ccccc2N(CCCCC(=O)O)C1=O",
    "data.value": 0
  }
]
